- System: RPMI-8226 leukemia
- protocol_summary: NCI tumour cell line growth inhibition, 48 h
property_measured: TGI

Here's what some known entries look like.
Cn1cnc(C(=N)[Se])c1N; 6.95 µM
NC(=O)c1csc(-c2ccc(CO)o2)n1; > 100 µM

Test item CC(C)C(CCOS(=O)(=O)O)CCC(C)[C@H]1[C@@H](O)C(O)C2[C@]3(O)C[C@@H](O)C4(O)C[C@@H](O)CC[C@]4(C)C3CC[C@@]21C (stereo not given in full) ; RPMI-8226 leukemia; reported TGI was > 100 µM

Test item c1ccc2c(c1)-c1ccccc1C2NC1=NCCO1 ; RPMI-8226 leukemia; reported TGI was 91.9 µM

Test item CON[N+]([O-])=NC(C)C ; RPMI-8226 leukemia; reported TGI was > 100 µM

Test item C=C(C)[C@H]1CC(=O)[C@@]2(C)C[C@H]3O[C@]3(C)CC/C=C(\C)CC[C@H]12 ; RPMI-8226 leukemia; reported TGI was 91.9 µM

Test item Cn1c(=O)cc(Nc2ccc(N)cc2)[nH]c1=O ; RPMI-8226 leukemia; reported TGI was > 100 µM

Test item O=C(OCC(OC(=O)c1ccccc1)C1CC(C2(O)CCCCC2)C(=O)O1)c1ccccc1 (stereo not given) ; RPMI-8226 leukemia; reported TGI was > 25 µM

Test item CN1C2(c3ccccc3)C(C(=O)c3ccccc3)=C(C(=O)c3ccccc3)C1(c1ccccc1)c1c(-c3ccccc3)sc(-c3ccccc3)c12 ; RPMI-8226 leukemia; reported TGI was > 100 µM

Test item c1cc(CSc2ncnc3nc[nH]c23)ccn1 ; RPMI-8226 leukemia; reported TGI was > 100 µM

Test item C[C@@H]1CC[C@@]2(C)[C@H](C)/C(=C\COC(=O)/C=C/c3ccc(O)c(O)c3)CC[C@@]12C ; RPMI-8226 leukemia; reported TGI was 10.2 µM

Test item [CH3][Hg]/[N]=C(/N)NC#N ; RPMI-8226 leukemia; reported TGI was > 100 µM

Test item O=C(O)c1ccc(Nc2cnc3cc(C(F)(F)F)ccc3n2)cc1 ; RPMI-8226 leukemia; reported TGI was > 100 µM

Test item c1ccc(/C(=N/Nc2ccccn2)c2cccnn2)cc1 ; RPMI-8226 leukemia; reported TGI was 17 µM

Test item Clc1ccccc1C1SCc2nc3ccccc3n21 (stereo not given) ; RPMI-8226 leukemia; reported TGI was > 100 µM

* * *

- Test system: SK-MEL-28 melanoma
- protocol_summary: NCI tumour cell line growth inhibition, 48 h
property_measured: TGI

Here's what some known entries look like.
O=c1c2cc([N+](=O)[O-])ccc2n2n1CCCCC2; > 100 µM
COc1c(B(O)O)cccc1-c1nc2c(F)cc3n[nH]c(C)c3c2c2c1CCCC2; > 38.8 µM
S=C(S)NCCN1CCNCC1; > 100 µM
O=C1c2ccccc2C(=O)N1NC1=NCCN1; > 100 µM

For Cn1c(=O)c(Oc2ccc(F)cc2F)cc2cnc(NCC(C)(C)O)nc21 the compound record lists TGI as > 25 µM

For O=C1OC(c2ccccc2Br)=N/C1=C/c1ccccc1 the compound record lists TGI as > 100 µM

* * *

- Tested on: MALME-3M melanoma
- protocol_summary: NCI tumour cell line growth inhibition, 48 h
// reported TGI for each item listed
Give the value in µM but do not write µM after it.

COc1ccc(/C=C/C(=O)CCN2CCN(CCC(=O)/C=C/c3ccc(OC)cc3)CC2)cc1; 35.9

Below: the item to evaluate.
For CCCCCCCCCCCCCCCCCCOc1ccccc1COP(=O)(O)OOCC[N+](C)(C)C the compound record lists TGI as 3.21

* * *

- Test system: NCI-H522 lung
- protocol_summary: NCI tumour cell line growth inhibition, 48 h
property_measured: TGI (µM)
Give the value in µM but do not write µM after it.

Here's what some known entries look like.
CC(=O)O[C@@H]1CC[C@@]2(C)C(=O)C34C[C@@]5(C)C([C@@H](C)CCCC(C)C)CCC5(C)[C@](O)(O3)C(=O)[C@H]4C2C1(C)C (stereo partly drawn); 25.5
N=c1oc2cc(O)ccc2cc1C(=O)Nc1cccc2ccccc12; 7.47
CC[C@@]1(O)C(=O)OCc2c1cc1n(c2=O)Cc2c-1nc1cc(F)c(C)c3c1c2[C@@H](NC(=O)CO)CC3; 0.328
CCOc1cc2c(cc1O)C(=O)C[C@@H]1[C@@H]2CC[C@]2(C)[C@@H](O)CC[C@@H]12; 3.2
COc1ccc(-c2cc(=O)c3cc(O)ccc3o2)c(OC)c1OC; 64.6

Below: the item to evaluate.
Test item C[C@]12CC[C@H]3[C@@H](CC[C@]4(O)C[C@@H](O[C@@H]5O[C@H](CO)[C@@H](O[C@@H]6OC[C@@H](O)[C@H](O)[C@H]6O)[C@H](O)[C@H]5O)CC[C@]34C=O)[C@@]1(O)CC[C@@H]2C1=CC(=O)OC1 ; NCI-H522 lung; reported TGI was 1.51

* * *

- Tested on: NCI/ADR-RES ovarian
- protocol_summary: NCI tumour cell line growth inhibition, 48 h
// reported TGI for each item listed

Here's what some known entries look like.
CN(Cc1cnc2nc(N)nc(N)c2n1)c1ccc(C(=O)NCCCC(=O)O)cc1; > 100 µM
O=CC1OC(=O)c2cc(O)c(O)c(O)c2-c2c(cc(O)c(O)c2O)C(=O)OC1C1OC(=O)c2cc(O)c(O)c(O)c2-c2c(O)c(O)c3oc(=O)c4c(c(O)c(O)c5oc(=O)c2c3c54)-c2c(cc(O)c(O)c2O)C(=O)OCC1O (stereo not given); > 100 µM
CC(=O)OCC1OC(O[C@H]2C=C[C@@H](C(=O)OCc3ccccc3)n3c(=O)n(-c4ccccc4)c(=O)n32)C(OC(C)=O)C(OC(C)=O)C1OC(C)=O (stereo not given in full); > 100 µM
C[C@@H](c1ccccc1)N1CO[C@@]2(C#Cc3ccc4c(c3)OCO4)CCC[C@@H]12; 30.8 µM

Below: the item to evaluate.
For NC(CSCSCC(N)C(=O)O)C(=O)O (stereo not given) the compound record lists TGI as > 104 µM

* * *

// reported TGI for each item listed
- System: SK-MEL-28 melanoma
- protocol_summary: NCI tumour cell line growth inhibition, 48 h

Here's what some known entries look like.
Cc1[nH]nc(C(=O)N/N=C/c2ccccc2Cl)c1N=NN(C)C; > 100 µM
CCOc1ccc2c(c1)C(=O)c1c-2n(CCCN=[N+]=[N-])c(=O)c2cc([N+](=O)[O-])ccc12; > 100 µM
NC1(C(=O)N[C@@H](CCO)c2ccc(Cl)cc2)CCN(c2ncnc3[nH]ccc23)CC1; > 100 µM
O=C(N/N=C/c1ccncc1)c1ccc(F)cc1; > 40 µM
C=C(C)[C@H]1CC(=O)[C@@]2(C)C[C@H]3O[C@]3(C)CC/C=C(\C)CC[C@H]12; > 100 µM
Nc1ccc(C2SCC(=O)N2NS(=O)(=O)c2cccc(C(=O)O)c2)cc1 (stereo unspecified); > 100 µM
C=CCOCn1cnc2c(=O)[nH]c(N)nc21; > 100 µM
CN1CCc2c(sc3ncn(Nc4ccc(F)cc4)c(=N)c23)C1; > 100 µM

For CC(=O)ON=C1C=CC(=C(C#N)c2ccccc2)C=C1 the compound record lists TGI as 61.4 µM

For COCCn1c2c([n+](Cc3cnccn3)c1C)C(=O)c1ccccc1C2=O the compound record lists TGI as 0.0419 µM

For CCN(CC)CCSc1c(C(C)=O)c(=O)n(-c2ccccc2)c(=S)n1-c1ccccc1 the compound record lists TGI as 33.3 µM

* * *

- Tested on: OVCAR-3 ovarian
- protocol_summary: NCI tumour cell line growth inhibition, 48 h
// reported TGI for each item listed

O=C(CCCn1ccnc1[N+](=O)[O-])NCCn1cnc([N+](=O)[O-])n1; > 100 µM
COc1cc(C(c2ccc3c(c2)OCO3)C2SCCCS2)cc(OC)c1OC (stereo not drawn); 27.4 µM
CC(=O)ON=C1C=CC(=C(C#N)c2ccccc2)C=C1; 8.41 µM
O=c1/c(=C\c2ccc(Br)cc2)sc2n1C(c1ccc(Br)cc1)C1=C(N=2)c2ccc3ccccc3c2OCC1 (stereo not drawn); > 100 µM
CC/C=C\C=C/C(=O)N/C=C/CCC; > 100 µM
Cc1[nH]nc(C(=O)N/N=C/c2ccccc2Cl)c1N=NN(C)C; > 100 µM
CCOc1ccc2c(c1)C(=O)c1c-2n(CCCN=[N+]=[N-])c(=O)c2cc([N+](=O)[O-])ccc12; > 100 µM

Below: the item to evaluate.
For CC(=O)Oc1cc(-c2oc3cc(OC(C)=O)c(C4OC(CO)C(O)C(O)C4O)c(OC(C)=O)c3c(=O)c2O)c(OC(C)=O)cc1O (stereo not drawn) the compound record lists TGI as > 100 µM
